Where do these numbers come from? They come from ChEMBL document CHEMBL1121390.

# protocolDetails: Partition coefficient (logP)
# Type: physicochemical
# conditionDescription: octanol/water
A collection of compounds and their measured logP
Hey, just send me the number, nothing else.

[[record]]
compound = "COc1cc(C(=O)OC2N=C(c3ccccc3)c3cc(Cl)ccc3NC2=O)cc(OC)c1OC (stereo not given)"
number = 3.54

[[record]]
compound = "O=C(O)CCC(=O)OC1N=C(c2ccccc2)c2cc(Cl)ccc2NC1=O (stereo not given)"
number = 1.41

[[record]]
compound = "O=C1C(O)N=C(c2ccccc2)c2cc(Cl)ccc2N1CCO (stereo not given)"
number = 1.35

[[record]]
compound = "CCN(CC)CCN1C(=O)C(O)N=C(c2ccccc2)c2cc(Cl)ccc21 (stereo not given)"
number = 1.67

[[record]]
compound = "CCOC1N=C(c2ccccc2)c2cc(Cl)ccc2N(CCCl)C1=O (stereo not given)"
number = 3.95


Record CNC1C[N+]([O-])=C(c2ccccc2)c2cc(Cl)ccc2N1 (stereo not given) . Reported logP: 2.5

The compound listed as CCOC1N=C(c2ccccc2)c2cc(Cl)ccc2N(CCO)C1=O (stereo not given) has a reported logP of 2.4

Kindly note the recorded logP for "CCN(CC)CCN1C(=O)CN=C(c2ccccc2F)c2cc(Cl)ccc21" , which is 2.35

// sample "O=C1CN=C(c2ccccc2Cl)c2cc([N+](=O)[O-])ccc2N1" , its logP was 2.41

logP recorded for this compound, O=C1C(O)N=C(c2ccccc2)c2cc([N+](=O)[O-])ccc2N1CCO (stereo not given) , is 0.72

###

# Species: Rattus norvegicus
# protocolDetails: Fourfod increase in lever pressing in punished rats, ED50 value reported as log1/C
# Assay type: functional
Lab note: anything with Log 1/C at or over 2 counts as 1 (yes); the rest go in 0 (no).

Given the entry CNC1C[N+]([O-])=C(c2ccccc2)c2cc(Cl)ccc2N1 (configuration not stated) , answer whether its Log 1/C meets or surpasses 2.
0 (no)

hey, is Log 1/C for this one >= 2? "O=C1CN=C(c2ccccc2F)c2cc(Cl)ccc2N1"
1 (yes)

###

# logP per entry
# protocolDetails: Partition coefficient (logP)
# Assay type: physicochemical
# conditionDescription: octanol/water
Kindly provide the number alone.

[[record]]
compound = "CC(=O)OC1N=C(c2ccccc2)c2cc(Cl)ccc2N(CCO)C1=O (stereo unspecified)"
number = 2.01

[[record]]
compound = "O=C1C(O)N=C(c2ccccc2Cl)c2cc(Cl)ccc2N1CCO (stereo unspecified)"
number = 1.94

[[record]]
compound = "O=C1CN=C(c2ccccc2)c2cc(Cl)ccc2N1CC(F)(F)F"
number = 3.73

[[record]]
compound = "O=C1C(O)N=C(c2ccccc2)c2cc(Cl)ccc2N1CCCO (stereo unspecified)"
number = 1.87


Form field logP, entry "O=C1CN=C(c2ccccc2)c2cc([N+](=O)[O-])ccc2N1" : 2.12

Form: compound = O=C1C(O)N=C(c2ccccc2F)c2cc(Cl)ccc2N1CCO (stereo unspecified) ; logP = 1.36

Entry CCCC(CCC)C(=O)OC1N=C(c2ccccc2)c2cc(Cl)ccc2NC1=O (stereo unspecified) ; logP = 5.25

Record "O=C1CN=C(c2ccccc2F)c2cc(Cl)ccc2N1" , field logP: 2.15

Value of measured logP for the entry "CN1C(=O)CN=C(c2ccccc2Cl)c2cc(Cl)ccc21" : 3.25

In plain terms, O=C1Nc2ccc(Cl)cc2C(c2ccccc2F)=NC1O (stereo unspecified) has a documented logP of 1.48

###

# Species: Rattus norvegicus
# protocolDetails: Fourfod increase in lever pressing in punished rats, ED50 value reported as log1/C
# Format: functional
Short version: Log 1/C at least 2 is rule met, less is rule not met.

Past entries and their recorded results:
[[record]]
compound = "O=C1CN=C(c2ccccc2Cl)c2cc(Cl)ccc2N1"
assignedcategory = "rule met"

[[record]]
compound = "O=C1CN=C(c2ccccc2)c2cc(Cl)ccc2N1"
assignedcategory = "rule not met"

[[record]]
compound = "CN1C(=O)CN=C(c2ccccc2F)c2cc(Cl)ccc21"
assignedcategory = "rule met"


Hello, I need to know if O=C1Nc2ccc(Cl)cc2C(c2ccccc2)=NC1O (stereo not given) has measured Log 1/C not below 2. Thanks!
rule not met

Exam item: decide whether the reported Log 1/C for O=C1Nc2ccc(Cl)cc2C(c2ccccc2F)=NC1O (stereo not given) is at least 2.
rule met

###

# protocolDetails: Partition coefficient (logP)
# Type: physicochemical
# conditionDescription: octanol/water
Reported logP by item:
Give only the figure.

Reference set (8 entries):
[[record]]
compound = "O=C(O)CCC(=O)OCCN1C(=O)C[N+]([O-])=C(c2ccccc2)c2cc(Cl)ccc21"
measurementname = "logP"
number = 0.19

[[record]]
compound = "CCOC1N=C(c2ccccc2)c2cc(Cl)ccc2N(CCOC(C)=O)C1=O (stereo unspecified)"
measurementname = "logP"
number = 2.87

[[record]]
compound = "O=C1CN=C(c2ccccc2Cl)c2cc(Cl)ccc2N1 [DELORAZEPAM]"
measurementname = "logP"
number = 2.73

[[record]]
compound = "O=C1C[N+]([O-])=C(c2ccccc2)c2ccccc2N1"
measurementname = "logP"
number = 1.46

[[record]]
compound = "CCN(CC)CCN1C(=O)C(O)N=C(c2ccccc2Cl)c2cc(Cl)ccc21 (stereo unspecified)"
measurementname = "logP"
number = 2.26

[[record]]
compound = "CN1C(=O)CN=C(c2ccccc2F)c2cc(Cl)ccc21 [FLUDIAZEPAM]"
measurementname = "logP"
number = 2.67

[[record]]
compound = "CN1C(=O)CN=C(C2C=CCCC2)c2cc(Cl)ccc21 (stereo unspecified)"
measurementname = "logP"
number = 2.76

[[record]]
compound = "CC(=O)OCCCN1C(=O)C(OC(C)=O)N=C(c2ccccc2)c2cc(Cl)ccc21 (stereo unspecified)"
measurementname = "logP"
number = 3


Recorded result, CC(=O)OCCN1C(=O)C(OC(C)=O)N=C(c2ccccc2)c2cc(Cl)ccc21 (stereo unspecified) , logP: 2.48

# logP (compound: "CNC(=O)N1C(=O)CN=C(c2ccccc2)c2cc([N+](=O)[O-])ccc21" ) is 1.95

###

# Organism: Rattus norvegicus
# protocolDetails: Fourfod increase in lever pressing in punished rats, ED50 value reported as log1/C
# Assay type: functional
measurementName: Log 1/C
Please reply with the number alone, leaving off any unit.

[[record]]
compound = "O=C1C(O)N=C(c2ccccc2Cl)c2cc(Cl)ccc2N1CCO (stereo not given)"
number = 1.959

[[record]]
compound = "CN1C(=O)C(O)N=C(c2ccccc2F)c2cc(Cl)ccc21 (stereo not given)"
number = 2.585

[[record]]
compound = "O=C1Nc2ccc(Cl)cc2C(c2ccccc2Cl)=NC1O (stereo not given)"
number = 2.444


Just so you know, measured Log 1/C for O=C1C(O)N=C(c2ccccc2)c2cc(Cl)ccc2N1CCO (stereo not given) came out at 0.361

# Log 1/C (compound: "CCN(CC)CCN1C(=O)CN=C(c2ccccc2F)c2cc(Cl)ccc21" ) is 1.745

###

# protocolDetails: Partition coefficient (logP)
# Format: physicochemical
# conditionDescription: octanol/water
logP strictly less than 2 = yes. Otherwise no.

Examples from the recorded data:
[[record]]
compound = "CCN(CC)CCN1C(=O)C(O)N=C(c2ccccc2F)c2cc(Cl)ccc21 (stereo unspecified)"
assignedcategory = "yes"

[[record]]
compound = "CN1CCN=C(c2ccccc2)c2cc(Cl)ccc21"
assignedcategory = "no"

[[record]]
compound = "O=C1C[N+]([O-])=C(c2ccccc2)c2cc(Cl)ccc2N1CCO"
assignedcategory = "yes"

[[record]]
compound = "CN1C(=O)C(O)N=C(c2ccccc2Cl)c2cc(Cl)ccc21 (stereo unspecified)"
assignedcategory = "no"


Find out if reported logP for "O=C1CN=C(c2ccccc2)c2cc(Cl)ccc2N1CC1CC1" is less than 2
no
